- system: HLA-DRB1*04:01 (Homo sapiens, UniProt P01903+P01911, A100K/A169T/F76Y/I96L/K127E/L162R/M171V/N62H/P40V/Q125Y/R42H/S133A/S149N/S66Y/V115G/V209L/W38E)
- Construct: EBV transformed homozygous cell lines were used as sources of MHC molecules; endogenous in cells; host or cells: EBV transformed homozygous cell lines
- protocol_description: HLA class II peptide binding, inhibition of radiolabeled peptide binding to purified MHC
- conditions_used: citrullinated 15-mer peptide (X = citrulline); purified HLA-DRB1*04:01; read-out: DRB1*04:01 binding capacity, Cit peptide (IC50 nM)
Square brackets hold non-standard residues; d marks the D form. Peptide text beside a SMILES is read from it. Cit = NC(=O)NCCC[C@H](N)C(=O)O
Assignment: determine reported IC50 for the given molecules.

Prompt: For CC(C)C[C@H](NC(=O)CNC(=O)[C@@H](N)CC(=O)O)C(=O)N[C@@H](C)C(=O)NCC(=O)N1CCC[C@H]1C(=O)N[C@@H](CCCCN)C(=O)NCC(=O)N[C@@H](C)C(=O)N1CCC[C@H]1C(=O)NCC(=O)N[C@@H](CCC(=O)O)C(=O)N[C@@H](CCCNC(N)=O)C(=O)NCC(=O)N1CCC[C@H]1C(=O)O [DGLAGPKGAPGEXGP] (H-DGLAGPKGAPGE[Cit]GP-OH) , what is its reported IC50?
Response: > 40000 nM

Prompt: For CC(C)C[C@H](NC(=O)CNC(=O)[C@@H]1CCCN1C(=O)[C@H](C)NC(=O)CNC(=O)[C@@H]1CCCN1C(=O)[C@H](CC(C)C)NC(=O)CN)C(=O)N[C@@H](CCCNC(N)=O)C(=O)NCC(=O)N[C@@H](CC(C)C)C(=O)N1CCC[C@H]1C(=O)NCC(=O)N[C@@H](CCCCN)C(=O)N[C@@H](CC(=O)O)C(=O)O [GLPGAPGLXGLPGKD] (H-GLPGAPGL[Cit]GLPGKD-OH) , what is its reported IC50?
Response: > 40000 nM

Prompt: For C[C@H](NC(=O)CNC(=O)[C@@H]1CCCN1C(=O)[C@H](CO)NC(=O)CNC(=O)[C@H](CCC(=O)O)NC(=O)[C@@H](N)CCCNC(=N)N)C(=O)N[C@@H](CC(=O)O)C(=O)NCC(=O)N1CCC[C@H]1C(=O)N1CCC[C@H]1C(=O)NCC(=O)N[C@@H](CCCNC(N)=O)C(=O)N[C@@H](CC(=O)O)C(=O)NCC(=O)O [REGSPGADGPPGXDG] (H-REGSPGADGPPG[Cit]DG-OH; N-terminus and C-terminus assumed) , what is its reported IC50?
Response: > 40000 nM

###

- system: DQB1*03:01 (Homo sapiens, UniProt P01909+P01920)
- Sequence (P01920 33-261, other chains not shown): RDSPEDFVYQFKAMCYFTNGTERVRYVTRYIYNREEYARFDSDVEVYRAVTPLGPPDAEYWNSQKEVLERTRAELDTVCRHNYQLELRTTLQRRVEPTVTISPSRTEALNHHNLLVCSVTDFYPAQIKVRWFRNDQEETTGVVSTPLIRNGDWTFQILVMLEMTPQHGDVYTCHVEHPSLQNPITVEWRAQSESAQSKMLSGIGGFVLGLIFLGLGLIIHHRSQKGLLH
- protocol_description: HLA class II peptide binding, inhibition of radiolabeled peptide binding to purified MHC
- conditions_used: DQ, competition with radiolabeled peptide, two-day incubation, three or more independent experiments
Ends that are not written are not given here.
Assignment: determine reported IC50 for the given sequences.
Just the number please, in nM, no unit attached.

Prompt: For SAVRLRSSVPGVR [Vimentin 66–78 WT] , what is its reported IC50?
Response: 2100

Prompt: For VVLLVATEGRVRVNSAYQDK [Aggrecan 84–103 WT] , what is its reported IC50?
Response: 229

Prompt: For LQYMRADQAAGGLR [Collagen II 1236–1249 WT] , what is its reported IC50?
Response: 12800

###

- system: HLA-DRB1*01:01 (Homo sapiens, UniProt P01903+P01911, A100R/D57E/F55L/F60I/F76Y/I96L/L162R/M171V/P40L/Q125E/R42F/V115G/Y59C)
- Construct: EBV transformed homozygous cell lines were used as sources of MHC molecules; endogenous in cells; host or cells: EBV transformed homozygous cell lines
- protocol_description: HLA class II peptide binding, inhibition of radiolabeled peptide binding to purified MHC
- conditions_used: citrullinated peptide as listed (X at Cit position); read-out: DRB1*01:01 binding capacity Cit peptide (IC50 nM)
Square brackets hold non-standard residues; d marks the D form. Peptide text beside a SMILES is read from it. Cit = NC(=O)NCCC[C@H](N)C(=O)O
Assignment: determine reported IC50 for the given molecules.
Just the number please, in nM, no unit attached.

Prompt: For CSCC[C@H](NC(=O)[C@H](CCC(N)=O)NC(=O)[C@@H](NC(=O)[C@H](CC(N)=O)NC(=O)[C@H](C)N)C(C)C)C(=O)N[C@H](C(=O)N[C@@H](Cc1ccccc1)C(=O)N[C@@H](CC(C)C)C(=O)N[C@@H](CCCNC(N)=O)C(=O)N[C@@H](CC(C)C)C(=O)N[C@@H](CC(C)C)C(=O)N[C@@H](CO)C(=O)N[C@H](C(=O)N[C@@H](CCC(=O)O)C(=O)NCC(=O)O)[C@@H](C)O)[C@@H](C)O [ANVQMTFLXLLSTEG] (H-ANVQMTFL[Cit]LLSTEG-OH) , what is its reported IC50?
Response: 65

Prompt: For CSCC[C@H](NC(=O)[C@H](Cc1ccc(O)cc1)NC(=O)[C@H](CCC(N)=O)NC(=O)[C@H](CC(C)C)NC(=O)[C@@H]1CCCN1C(=O)[C@H](CC(=O)O)NC(=O)[C@@H]1CCCN1C(=O)CNC(=O)[C@@H](N)CCCCN)C(=O)N[C@@H](CCCNC(N)=O)C(=O)N[C@@H](C)C(=O)N[C@@H](CC(=O)O)C(=O)N[C@@H](CCC(N)=O)C(=O)N[C@@H](C)C(=O)N[C@@H](C)C(=O)O [KGPDPLQYMXADQAA] (H-KGPDPLQYM[Cit]ADQAA-OH) , what is its reported IC50?
Response: 9.2

###

- system: HLA-DRB1*04:01 (Homo sapiens, UniProt P01903+P01911, A100K/A169T/F76Y/I96L/K127E/L162R/M171V/N62H/P40V/Q125Y/R42H/S133A/S149N/S66Y/V115G/V209L/W38E)
- Construct: EBV transformed homozygous cell lines were used as sources of MHC molecules; endogenous in cells; host or cells: EBV transformed homozygous cell lines
- protocol_description: HLA class II peptide binding, inhibition of radiolabeled peptide binding to purified MHC
- conditions_used: citrullinated 15-mer (X); purified MHC, inhibition of radiolabeled peptide binding; dash = IC50 >40,000 nM; read-out: DRB1*04:01 binding capacity, Cit peptide (IC50 nM)
Square brackets hold non-standard residues; d marks the D form. Peptide text beside a SMILES is read from it. Cit = NC(=O)NCCC[C@H](N)C(=O)O
readout_type: IC50

Prompt: For CC(C)C[C@H](NC(=O)[C@H](CCCNC(N)=O)NC(=O)[C@H](CO)NC(=O)[C@H](CCCCN)NC(=O)CNC(=O)[C@H](CCC(N)=O)NC(=O)CNC(=O)[C@H](CCCCN)NC(=O)[C@H](CC(C)C)NC(=O)[C@H](CCC(N)=O)NC(=O)[C@@H](N)CCC(=O)O)C(=O)NCC(=O)N[C@@H](CC(=O)O)C(=O)N[C@@H](CC(C)C)C(=O)N[C@@H](Cc1ccc(O)cc1)C(=O)O , what is its reported IC50?
Response: > 40000 nM

Prompt: For CC[C@H](C)[C@H](NC(=O)[C@H](CC(=O)O)NC(=O)[C@H](CCC(=O)O)NC(=O)[C@H](C)NC(=O)[C@H](CC(C)C)NC(=O)[C@H](CC(N)=O)NC(=O)[C@H](CC(=O)O)NC(=O)[C@H](CCCNC(=N)N)NC(=O)[C@H](CCC(=O)O)NC(=O)[C@@H](NC(=O)[C@H](CCC(=O)O)NC(=O)[C@@H](N)C(C)C)C(C)C)C(=O)N[C@@H](CCSC)C(=O)N[C@@H](CCCNC(N)=O)C(=O)N[C@@H](CC(C)C)C(=O)O [VEVERDNLAEDIMXL] (H-VEVERDNLAEDIM[Cit]L-OH) , what is its reported IC50?
Response: 17100 nM

Prompt: For CC[C@H](C)[C@H](NC(=O)[C@H](CC(=O)O)NC(=O)[C@H](CCC(=O)O)NC(=O)[C@H](C)NC(=O)[C@H](CC(C)C)NC(=O)[C@H](CC(N)=O)NC(=O)[C@@H](N)CC(=O)O)C(=O)N[C@@H](CCSC)C(=O)N[C@@H](CCCNC(N)=O)C(=O)N[C@@H](CC(C)C)C(=O)N[C@@H](CCCNC(=N)N)C(=O)N[C@@H](CCC(=O)O)C(=O)N[C@@H](CCCCN)C(=O)N[C@@H](CC(C)C)C(=O)N[C@@H](CCC(N)=O)C(=O)O [DNLAEDIMXLREKLQ] (H-DNLAEDIM[Cit]LREKLQ-OH) , what is its reported IC50?
Response: > 40000 nM

Prompt: For CC(C)C[C@H](NC(=O)[C@H](C)NC(=O)[C@H](CO)NC(=O)CNC(=O)[C@H](CC(C)C)NC(=O)[C@H](CO)NC(=O)[C@H](Cc1ccc(O)cc1)NC(=O)[C@@H](NC(=O)[C@@H](N)CCCNC(N)=O)[C@@H](C)O)C(=O)N[C@@H](CCCNC(=N)N)C(=O)N1CCC[C@H]1C(=O)N[C@@H](CO)C(=O)N[C@H](C(=O)N[C@@H](CO)C(=O)N[C@@H](CCCNC(=N)N)C(=O)O)[C@@H](C)O [XTYSLGSALRPSTSR] (H-[Cit]TYSLGSALRPSTSR-OH) , what is its reported IC50?
Response: 4770 nM

Prompt: For CSCC[C@H](NC(=O)[C@H](CCC(=O)O)NC(=O)[C@H](CCC(=O)O)NC(=O)[C@H](CCC(=O)O)NC(=O)[C@H](Cc1ccc(O)cc1)NC(=O)[C@H](CC(C)C)NC(=O)[C@H](CC(=O)O)NC(=O)CNC(=O)[C@H](CC(C)C)NC(=O)[C@H](CCCNC(N)=O)NC(=O)[C@H](CO)NC(=O)[C@H](CCCCN)NC(=O)CNC(=O)[C@@H](N)CCC(N)=O)C(=O)N[C@@H](CCCNC(=N)N)C(=O)O [QGKSXLGDLYEEEMR] (H-QGKS[Cit]LGDLYEEEMR-OH; N-terminus and C-terminus assumed) , what is its reported IC50?
Response: > 40000 nM

Prompt: For CC(C)C[C@H](NC(=O)[C@H](CO)NC(=O)[C@H](C)NC(=O)[C@H](CC(N)=O)NC(=O)[C@@H](N)CC(=O)O)C(=O)N[C@@H](C)C(=O)N[C@@H](CCCNC(=N)N)C(=O)N[C@@H](CC(C)C)C(=O)N[C@@H](CC(=O)O)C(=O)N[C@@H](CC(C)C)C(=O)N[C@@H](CCC(=O)O)C(=O)N[C@@H](CCCNC(N)=O)C(=O)N[C@@H](CCCCN)C(=O)N[C@H](C(=O)N[C@@H](CCC(=O)O)C(=O)O)C(C)C [DNASLARLDLEXKVE] (H-DNASLARLDLE[Cit]KVE-OH) , what is its reported IC50?
Response: > 40000 nM

Prompt: For CC(C)C[C@H](NC(=O)[C@H](C)NC(=O)[C@H](C)NC(=O)[C@@H](NC(=O)[C@H](CC(C)C)NC(=O)[C@H](CC(=O)O)NC(=O)[C@@H]1CCCN1C(=O)[C@H](CCCCN)NC(=O)[C@@H](N)CO)[C@@H](C)O)C(=O)N[C@@H](CCCNC(=N)N)C(=O)N[C@@H](CC(=O)O)C(=O)N[C@H](C(=O)N[C@@H](CCCNC(N)=O)C(=O)N[C@@H](CCC(N)=O)C(=O)N[C@@H](CCC(N)=O)C(=O)O)C(C)C [SKPDLTAALRDVXQQ] (H-SKPDLTAALRDV[Cit]QQ-OH) , what is its reported IC50?
Response: 29700 nM

Prompt: For CC(C)C[C@H](NC(=O)[C@H](C)NC(=O)[C@H](CO)NC(=O)CNC(=O)[C@H](CC(C)C)NC(=O)[C@H](CO)NC(=O)[C@H](Cc1ccc(O)cc1)NC(=O)[C@@H](NC(=O)[C@@H](N)CCCNC(=N)N)[C@@H](C)O)C(=O)N[C@@H](CCCNC(N)=O)C(=O)N1CCC[C@H]1C(=O)N[C@@H](CO)C(=O)N[C@H](C(=O)N[C@@H](CO)C(=O)N[C@@H](CCCNC(=N)N)C(=O)O)[C@@H](C)O [RTYSLGSALXPSTSR] (H-RTYSLGSAL[Cit]PSTSR-OH) , what is its reported IC50?
Response: 1100 nM

Prompt: For CC(C)C[C@H](NC(=O)[C@H](C)NC(=O)[C@H](CC(=O)O)NC(=O)[C@H](CC(N)=O)NC(=O)[C@H](CC(N)=O)NC(=O)[C@H](CCCNC(N)=O)NC(=O)[C@H](CC(N)=O)NC(=O)[C@H](C)NC(=O)[C@H](C)NC(=O)[C@H](CCC(=O)O)NC(=O)[C@H](CO)NC(=O)[C@H](CC(C)C)NC(=O)[C@H](CC(=O)O)NC(=O)[C@H](C)N)C(=O)N[C@@H](CCCNC(=N)N)C(=O)O [ADLSEAANXNNDALR] (H-ADLSEAAN[Cit]NNDALR-OH) , what is its reported IC50?
Response: 22200 nM

These measurements were taken from paper PMC5421785.
